- experiment description: qHTS Assay for Inhibitors of Hepatitis C Virus (HCV)
- recorded conditions: Huh7.5.1 HCVcc-Cre infection, luciferase reporter, 44 h; series mostly up to 41.8 µM
- From the text: Hepatitis C virus (HCV) infects about 200 million people in the world. Many infected people progress to chronic liver disease including cirrhosis with a risk of developing liver cancer. To date, there is no effective vaccine for hepatitis C. Current therapy based on interferon is only effective in about half of the patients and is associated with significant adverse effects. The fraction of people with HCV who can complete a successful treatment is estimated to be no more than 10 percent. […]
The whole screen tested about 340,000 compounds, of which about 12,000 (3.5%) were called active. Another 18% or so got no clear call; they are omitted. Calls follow the shape of the dose curve; as a rule, active = well fitted inhibition curve with a large enough effect; inconclusive = small, poorly fitted or top-dose-only effect, or another doubt; inactive = no such curve, though single readings can be large or run the other way. Many of the other results were omitted from the sample, so actives are more common in it than they were.
Parameter call: string, one of active, inactive

Hey, what did the test say about O=C(OCC(=O)N1CCc2ccccc21)C1CCCN1S(=O)(=O)c1ccc(Cl)cc1 (stereo not given) ?
inactive

====

- experiment description: qHTS Assay for Inhibitors of Hepatitis C Virus (HCV)
- recorded conditions: Huh7.5.1 HCVcc-Cre infection, luciferase reporter, 44 h; series mostly up to 41.8 µM
In all, about 340,000 compounds went through this assay and about 12,000 (3.5%) were called active. About 18% were inconclusive and are not listed. Calls come from the whole dose curve; as a rule, active = well fitted inhibition curve with a large enough effect; inconclusive = small, poorly fitted or top-dose-only effect, or another doubt; inactive = no such curve, though single readings can be large or run the other way. The sample as a whole holds a higher share of actives than the screen did.
Parameter call: string, one of active, inactive

COc1ccc(S(=O)(=O)N2CCN(C(=S)NCC3CCCO3)CC2)cc1OC (stereo not given) : inactive
Nc1ncnc2c1ncn2[C@@H]1O[C@H](CNCc2cccn2-c2nccs2)[C@@H](O)[C@H]1O : inactive
S=C(NCC1CCCO1)N1CCN(c2ccc(Cl)c(Cl)c2)CC1 (stereo not given) : active
COc1cccc(NC(=O)C(=O)c2cn(CC(=O)N3CCOCC3)c3ccccc23)c1 : active

Hey, what did the test say about CC(=O)C[C@H](O)CC(=O)[C@@H]1OC(=O)[C@@H](C)C/C=C\Cc2ccccc21 ?
inactive

Hey, what did the test say about CC(=O)c1ccc(NC(=O)CSc2nc3ccccc3c(=O)n2CCCN2CCOCC2)cc1 ?
inactive

Hey, what did the test say about CCCCOc1ccc(CON(C(C)=O)C(C)=O)cc1Cl ?
inactive

Hey, what did the test say about Cn1cccc1C(=O)OCC(=O)NCCc1ccccc1 ?
inactive

Hey, what did the test say about COc1cccc(NC(=O)CS(=O)(=O)c2cn(CC(=O)N3CCOCC3)c3ccccc23)c1 ?
inactive

Hey, what did the test say about CCc1ccc(CNC(=O)C2CCN(c3nnc(C)c4c(C)n(-c5ccc(C)cc5)nc34)CC2)cc1 ?
active

====

- experiment description: qHTS Assay for Inhibitors of Hepatitis C Virus (HCV); also: potency is read from the fitted curve at half-maximal effect
- recorded conditions: Huh7.5.1 HCVcc-Cre infection, luciferase reporter, 44 h; series mostly up to 41.8 µM
The whole screen tested about 340,000 compounds, of which about 12,000 (3.5%) were called active. About 18% were inconclusive and are not listed. The full list was thinned out, with actives kept by preference.
quantity: Potency

Known results for compounds:
COc1ccc([C@@H]2[C@@H]3C(=O)N(C(C)(C)C)C(=O)[C@@H]3[C@]3(Cc4ccccc4)C(=O)N(c4cccc(Br)c4)C(=O)N23)cc1 : inactive
CCCCn1c(SCC(=O)NCCc2ccc(OC)c(OC)c2)nc2c1c(=O)n(C)c(=O)n2C : inactive
COc1ccc(C2=NS(=O)(=O)N(C)C(C(=O)NC(C)c3ccccc3)=C2)cc1 (centres undefined) : inactive
COc1cc(OC)cc(C(=O)NNC(=O)Cc2cccs2)c1 : inactive
COc1ccc(CC(=O)Nc2ccccc2NC(=O)c2ccco2)cc1OC : inactive
CC(=O)c1cccc(NC(=O)c2ccncc2)c1 : inactive
O=C(CCN1c2ccccc2Sc2ccccc21)Nc1ccccc1 : 12.6 µM (active)
COc1ccc(C2C3=C(CCCC3=O)N(CC(=O)O)C3=C2C(=O)CCC3)cc1 : inactive
CCN1C(=O)[C@@H]2[C@@H](c3ccc(-c4ccc(OC)cc4)c(OC)c3)N3CCC[C@@]3(C(=O)OC)[C@@H]2C1=O : inactive
COc1ccc(CC(=O)Nc2nc(-c3ccc(F)c(F)c3)cs2)cc1OC : 4.47 µM (active)

# input compound: Cc1ccc(NC(=O)C2CCCN2C(=O)OCc2ccccc2)cc1C (centres undefined) ; wanted: its Potency
inactive

# input compound: CCCCNc1nc2c(c(=O)n(C)c(=O)n2C)n1Cc1cccc(OC)c1 ; wanted: its Potency
6.31 µM (active)

# input compound: CCC1(C)NC(=O)N(CC(=O)N2CCN(c3cccc(Cl)c3)CC2)C1=O (centres undefined) ; wanted: its Potency
inactive
